Measured pIC50 by item
- systemName: RORγ (Homo sapiens)
- Construct: expressed in transfected cells; host or cells: HEK 293 cells, transiently transfected
- Sequence (P51449 269-508 limits assumed): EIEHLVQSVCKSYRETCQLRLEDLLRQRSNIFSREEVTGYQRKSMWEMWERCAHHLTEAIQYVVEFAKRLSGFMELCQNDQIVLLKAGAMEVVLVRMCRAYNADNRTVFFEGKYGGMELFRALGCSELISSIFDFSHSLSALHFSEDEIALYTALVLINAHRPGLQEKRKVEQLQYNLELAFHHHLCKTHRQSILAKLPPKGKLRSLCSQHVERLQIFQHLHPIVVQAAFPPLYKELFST
- assayMethodText: Reporter Gene Assay (RGA): nuclear receptor transactivation assay, inhibition of RORγ transactivation of a luciferase reporter in transiently transfected HEK 293 cells
- Type: cell-based
pIC50: −log10 of the molar value.
measurementType: pIC50

{"columns": ["compound", "experimentalValue"],
 "data": [
  ["CCS(=O)(=O)c1ccc(CNc2nc3cnc(-c4c(C5CC5)ncnc4C4CC4)nc3n(C3CC3)c2=O)cc1", 5.96],
  ["CCS(=O)(=O)N1C[C@@H]2C(CNc3nc4cnc(-c5c(C)ncnc5C5CC5)nc4n([C@@H](C)C4CC4)c3=O)[C@@H]2C1 (stereo partly drawn)", 6.80],
  ["CCc1ncnc(C2CC2)c1-c1ncc2nc(NCc3ccc(S(C)(=O)=O)cc3)c(=O)n([C@H](C)CC)c2n1", 7.07],
  ["CCS(=O)(=O)c1ccc(CNc2nc3cnc(-c4c(C)ncnc4C4CC4)nc3n([C@@H](C)C(F)(F)F)c2=O)cc1", 7.14],
  ["CC[C@H](C)n1c(=O)c(NCc2ccc(S(N)(=O)=O)cn2)nc2cnc(-c3c(OC)ncnc3C3CC3)nc21", 6.82],
  ["CCS(=O)(=O)c1ccc(CNc2nc3cnc(-c4c(OC)ncnc4C4CC4)nc3n(CC(C)(C)F)c2=O)nc1", 5.94]
]}
